# Target or system: UniProtKB Q7Z5P4
# Sequence (Q7Z5P4 20-300): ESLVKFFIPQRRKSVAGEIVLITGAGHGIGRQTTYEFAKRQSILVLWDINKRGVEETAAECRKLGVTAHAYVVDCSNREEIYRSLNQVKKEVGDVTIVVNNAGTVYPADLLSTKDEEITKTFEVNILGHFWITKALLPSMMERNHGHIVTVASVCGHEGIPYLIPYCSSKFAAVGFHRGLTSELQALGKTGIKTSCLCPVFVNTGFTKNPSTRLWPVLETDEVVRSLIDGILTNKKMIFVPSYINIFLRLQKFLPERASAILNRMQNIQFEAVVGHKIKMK
# Assay protocol: Substrate screening of steroid and bioactive lipid libraries against purified recombinant HSD17B13 (NADH-linked luciferase assay)
# Assay type: biochemical
# Condition label: Bioactive Lipid Library, 5 μM bioactive lipid (Estradiol Control 50 μM), 500 μM NAD+, 100 ng enzyme, 3 hours at 23° C.
Counter-ions that a name gives are not always drawn.
We use 300000 RLU as the dividing line for HSD17B13 Enzymatic Activity Relative Light Units: on or above the line is 1, below is 0.

Say whether O=P(O)(O)O[C@@H]1[C@H](OP(=O)(O)O)[C@H](OP(=O)(O)O)[C@@H](O)[C@H](O)[C@H]1OP(=O)(O)O [(sodium salt)] shows HSD17B13 Enzymatic Activity Relative Light Units of 300000 RLU or more. 1

Say whether O=C(O)CCCC/C=C\C[C@@H](O)/C=C/C=C/C=C\[C@@H](O)CCCC(=O)O shows HSD17B13 Enzymatic Activity Relative Light Units of 300000 RLU or more. 1

Say whether CCCCCC(=O)/C=C/C=C\CCCCCCCCCC(=O)O shows HSD17B13 Enzymatic Activity Relative Light Units of 300000 RLU or more. 0

Say whether CC(=O)N[C@@H](CSC(=O)[C@]1([C@@H](O)C(C)C)NC(=O)[C@H](C)[C@@H]1O)C(=O)O shows HSD17B13 Enzymatic Activity Relative Light Units of 300000 RLU or more. 1

Say whether CCCCC/C=C\C[C@H](O)/C=C/C=C\CCC(=O)O [tetranor-12(S)-HETE] shows HSD17B13 Enzymatic Activity Relative Light Units of 300000 RLU or more. 1

Say whether CCCCC/C=C\C/C=C\C/C=C\CC#CCCCC(=O)O [5,6-dehydro Arachidonic Acid] shows HSD17B13 Enzymatic Activity Relative Light Units of 300000 RLU or more. 0

Say whether CCCCCCCC/C=C(\CCCCCCCC(=O)O)[N+](=O)[O-] [9-Nitrooleate] shows HSD17B13 Enzymatic Activity Relative Light Units of 300000 RLU or more. 0

Say whether CCCCC[C@H](O)/C=C/C=C\C=C\C=C\[C@H](O)[C@@H](O)CCCC(=O)O [6(S)-Lipoxin A4] shows HSD17B13 Enzymatic Activity Relative Light Units of 300000 RLU or more. 1
